Entry source: ChEMBL document CHEMBL3792312

Tested on: Mycobacterium tuberculosis
Assay: Antitubercular activity against dormant Mycobacterium bovis BCG after 12 days by nitrate reductase assay
Format: functional, organism-based
Conditions: variant bovis BCG, 288 h
1.0 if IC50 is below 5 µg/mL. 0.0 if not; exact matches included in 0.0.

Worked examples follow.
compound: O=C(NN1C(=O)CS[C@@H]1c1ccc(Cl)cc1)c1cnccn1
class-name: 1.0
//
compound: CO[C@H]1/C=C/O[C@@]2(C)Oc3c(C)c(O)c4c(O)c(c(/C=N/N5CCN(C)CC5)c(O)c4c3C2=O)NC(=O)/C(C)=C\C=C\[C@H](C)[C@H](O)[C@@H](C)[C@@H](O)[C@@H](C)[C@H](OC(C)=O)[C@@H]1C [RIFAMPIN]
class-name: 1.0
//
compound: Cc1cnc(C(=O)NN2C(=O)CS[C@@H]2c2ccc([N+](=O)[O-])cc2)cn1
class-name: 0.0
//
compound: Cc1cnc(C(=O)NN2C(=O)CS[C@@H]2c2cccc([N+](=O)[O-])c2)cn1
class-name: 0.0
//
compound: CCOc1cc([C@H]2SCC(=O)N2NC(=O)c2nccnc2N)ccc1O
class-name: 0.0

Determine whether this compound shows IC50 lower than 5 µg/mL (ties excluded): `CCOc1cc([C@@H]2SCC(=O)N2NC(=O)c2cnc(C)cn2)ccc1O`
0.0

###

Exercise: state measured MIC for each of the compounds provided.
System: Mycobacterium tuberculosis
Experiment: Antitubercular activity against dormant Mycobacterium bovis BCG after 12 days by nitrate reductase assay
Format: functional, organism-based
Details: variant bovis BCG, 288 h
Numbers only, in µg/mL.

compound: CCOc1cc([C@@H]2SCC(=O)N2NC(=O)c2cnc(C)cn2)ccc1O
MIC (µg/mL): 15.9

compound: Cc1cnc(C(=O)NN2C(=O)CS[C@@H]2c2ccc([N+](=O)[O-])cc2)cn1
MIC (µg/mL): 28.8

compound: Cc1cnc(C(=O)NN2C(=O)CS[C@@H]2c2cccc([N+](=O)[O-])c2)cn1
MIC (µg/mL): 18.5

Now consider a different compound.
Form field: reported MIC of Nc1nccnc1C(=O)NN1C(=O)CSC1c1ccccc1 (centres undefined)
24.4

###

Test system: Mycobacterium tuberculosis
Assay: Antitubercular activity against dormant Mycobacterium bovis BCG after 12 days by nitrate reductase assay
Format: functional, organism-based
Settings: variant bovis BCG, 288 h
Exercise: state measured log10(MIC) for each of the molecules provided.
Heads up: the numbers are on a log10 scale; they represent MIC in µg/mL.

The examples below pair each entry with its known result.
molecule: COc1ccc([C@H]2SCC(=O)N2NC(=O)c2nccnc2N)cc1OC
log10(MIC): 1.47
//
molecule: COc1cc([C@@H]2SCC(=O)N2NC(=O)c2cnc(C)cn2)ccc1O
log10(MIC): 1.09
//
molecule: Cc1cnc(C(=O)NN2C(=O)CS[C@H]2c2ccc(N(C)C)cc2)cn1
log10(MIC): 1.47
//
molecule: CO[C@H]1/C=C/O[C@@]2(C)Oc3c(C)c(O)c4c(O)c(c(/C=N/N5CCN(C)CC5)c(O)c4c3C2=O)NC(=O)/C(C)=C\C=C\[C@H](C)[C@H](O)[C@@H](C)[C@@H](O)[C@@H](C)[C@H](OC(C)=O)[C@@H]1C [RIFAMPIN]
log10(MIC): -1.40
//
molecule: O=C(NN1C(=O)CS[C@@H]1c1ccc([N+](=O)[O-])cc1)c1cnccn1
log10(MIC): 0.97

Items follow; give log10(MIC) for each.
1. NNC(=O)c1ccncc1 [ISONIAZID]
2. O=C(NN1C(=O)CS[C@@H]1c1ccc(Cl)cc1)c1cnccn1
3. CCOc1cc([C@H]2SCC(=O)N2NC(=O)c2nccnc2N)ccc1O

1. -1.35
2. 0.93
3. 1.47
